test: Solubility at pH 7.2; type: physicochemical; details: buffer
Catalogue of solubility readings, one per entry.

COc1ccc(C(F)(F)F)cc1NC(=O)Nc1ccc(Oc2cncc(C(=O)NCCN(C)C)c2)cc1 = 41 µg/mL

For CNC(=O)c1cncc(Oc2ccc(NC(=O)Nc3cc(C(F)(F)F)ccc3OC)cc2)c1 , what is its reported solubility?
≤ 4 µg/mL

Look up solubility for this compound: O=C(Nc1ccc(Oc2ccnc(C(=O)NCCN3CCOCC3)c2)cc1)Nc1ccc(Br)c(C(F)(F)F)c1
≤ 5 µg/mL

Could you share which solubility value was measured for O=C(Nc1ccc(Oc2cncc(C(=O)NCCN3CCOCC3)c2)cc1)Nc1ccc(Cl)c(C(F)(F)F)c1 ?
≤ 5 µg/mL

I'd like to know its solubility. The compound in question is O=C(Nc1ccc(Oc2ccnc(C(=O)NCCN3CCOCC3)c2)cc1)Nc1ccc(Cl)c(C(F)(F)F)c1
≤ 5 µg/mL

----------
assay: Solubility at pH 2.7; format: physicochemical; conditions: buffer
MEASURE: solubility (µg/mL)
Express the result in µg/mL but write the number alone.

As a guide, the following entries are already answered.
COc1ccc(C(F)(F)F)cc1NC(=O)Nc1ccc(Oc2cncc(C(=O)NCCN(C)C)c2)cc1 = 129
O=C(Nc1ccc(Oc2ccnc(C(=O)NCCN3CCOCC3)c2)cc1)Nc1ccc(Br)c(C(F)(F)F)c1 = 39
O=C(Nc1ccc(Oc2cncc(C(=O)NCCN3CCOCC3)c2)cc1)Nc1ccc(Cl)c(C(F)(F)F)c1 = 36

Next, consider the following compound.
Look up solubility: O=C(Nc1ccc(Oc2ccnc(C(=O)NCCN3CCOCC3)c2)cc1)Nc1ccc(Cl)c(C(F)(F)F)c1
141

----------
IC50 data for RAF proto-oncogene serine/threonine-protein kinase (Homo sapiens) follow.
Just the number in µM, nothing appended.

Known results for compounds:
COc1ccc(C(F)(F)F)cc1NC(=O)Nc1ccc(Oc2cncc(C(=O)NCCN(C)C)c2)cc1 = 0.1
CNC(=O)c1cc(Oc2ccc(NC(=O)Nc3cc(C(F)(F)F)ccc3OC)cc2)ccn1 = 0.053
CCNC(=O)c1cc(Oc2ccc(NC(=O)Nc3ccc(Cl)c(C(F)(F)F)c3)cc2)ccn1 = 0.026

Query compound follows.
Give recorded IC50 with RAF proto-oncogene serine/threonine-protein kinase (Homo sapiens) for the following compound: COc1ccc(C(F)(F)F)cc1NC(=O)Nc1ccc(Oc2cncc(C(=O)NCCN3CCOCC3)c2)cc1
Sequence (P04049 whole entry): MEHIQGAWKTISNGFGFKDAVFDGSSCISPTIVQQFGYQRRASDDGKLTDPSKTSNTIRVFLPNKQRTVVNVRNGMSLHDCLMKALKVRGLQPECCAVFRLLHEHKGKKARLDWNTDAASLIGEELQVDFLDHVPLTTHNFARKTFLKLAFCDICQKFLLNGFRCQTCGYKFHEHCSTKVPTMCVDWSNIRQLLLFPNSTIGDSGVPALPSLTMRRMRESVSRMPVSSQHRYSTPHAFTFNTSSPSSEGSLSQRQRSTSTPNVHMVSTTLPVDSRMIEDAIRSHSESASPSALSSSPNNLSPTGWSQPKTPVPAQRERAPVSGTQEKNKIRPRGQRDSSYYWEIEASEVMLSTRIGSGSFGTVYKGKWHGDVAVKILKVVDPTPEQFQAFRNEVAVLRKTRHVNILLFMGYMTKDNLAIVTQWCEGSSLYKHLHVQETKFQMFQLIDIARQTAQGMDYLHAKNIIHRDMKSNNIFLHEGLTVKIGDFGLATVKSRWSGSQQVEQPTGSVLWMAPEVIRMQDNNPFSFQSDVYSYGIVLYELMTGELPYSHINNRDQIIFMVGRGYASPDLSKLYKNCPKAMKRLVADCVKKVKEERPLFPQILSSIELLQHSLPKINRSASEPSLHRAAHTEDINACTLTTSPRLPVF
0.063

----------
molecular target: RAF proto-oncogene serine/threonine-protein kinase (Homo sapiens)
pIC50: −log10 of the molar value.
Short version: pIC50 at least 7 is criterion met, less is criterion not met.

A selection of reference data follows.
O=C(Nc1ccc(Oc2ccnc(C(=O)NCCN3CCOCC3)c2)cc1)Nc1ccc(Br)c(C(F)(F)F)c1 = criterion met
CC(C)(C)c1cc(NC(=O)Nc2ccc(Oc3cccc(C(=O)NCc4ccccc4)c3)cc2)no1 = criterion not met
CC(C)(C)c1cc(NC(=O)Nc2ccc(Oc3ccncc3)cc2)no1 = criterion not met

Has CN(C)C(=O)c1cccc(Oc2ccc(NC(=O)Nc3cc(C(C)(C)C)on3)cc2)c1 a recorded pIC50 greater than or equal to 7?
criterion not met

Determine whether this molecule has pIC50 no lower than 7: CNC(=O)c1cc(Oc2ccc(NC(=O)Nc3ccc(Br)c(C(F)(F)F)c3)cc2)ccn1
criterion met

Dear colleague, could you confirm whether CN(C)C(=O)c1cc(Oc2ccc(NC(=O)Nc3ccc(Cl)c(C(F)(F)F)c3)cc2)ccn1 has pIC50 at or above 7?
criterion not met
